Test system: 439559-082-T-J2-PDC spheroids viability;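 note: spheroids exposed to the agents for 7 days before readout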
protocol-details: Anticancer human tumor 439559-082-T-J2-PDC patient-derived colon adenocarcinoma cell line growth inhibition [GQUAD]
condition: curve of first compound; second compound 0.316 µM
pIC50: −log10 of the molar value.
Assign pIC50 to each entry below.

// known answers, use as guide
INSERT INTO assay_data (compound, result) VALUES
  ('COc1cc(C2c3cc4c(cc3C(OC3OC5COC(C)OC5C(O)C3O)C3COC(=O)C23)OCO4)cc(OC)c1O (configuration not stated) + Cc1[nH]c2ccc(F)cc2c1-c1nc2c3cccnc3c3ncccc3c2[nH]1', '< 5.00'),
  ('CC(C)(O)C1CCC(Nc2ccc3ncc(-c4cccc(C(F)(F)F)c4)n3n2)CC1 (configuration not stated) + Cc1[nH]c2ccc(F)cc2c1-c1nc2c3cccnc3c3ncccc3c2[nH]1', '< 5.00'),
  ('C#Cc1c(F)ccc2cc(O)cc(-c3ncc4c(N5CC6CCC(C5)N6)nc(OCC56CCCN5CC(F)C6)nc4c3F)c12 (configuration not stated) + Cc1cnc(CNC(=O)c2c(=O)c3ccc(N4CCCN(C)CC4)nc3n3c2sc2ccccc23)cn1', 5.19),
  ('CCc1c2c(nc3ccc(O)cc13)-c1cc3c(c(=O)n1C2)COC(=O)[C@]3(O)CC + Cc1cnc(CNC(=O)c2c(=O)c3ccc(N4CCCN(C)CC4)nc3n3c2sc2ccccc23)cn1', 6.90),
  ('Cc1[nH]c2ccccc2c1CCNCc1ccc(/C=C/C(=O)NO)cc1 + Cc1[nH]c2ccc(F)cc2c1-c1nc2c3cccnc3c3ncccc3c2[nH]1', '< 6.50');

Hi team, please reply with pIC50 for each item in this list.
1. C=CC(=O)N1CCN(c2nc(=O)n(-c3c(C)ccnc3C(C)C)c3nc(-c4c(O)cccc4F)c(F)cc23)C(C)C1 (configuration not stated) + CN(C)c1ccc(Nc2c3ccc(NC(=O)CCN4CCCC4)cc3nc3cc(NC(=O)CCN4CCCC4)ccc23)cc1
2. O=c1[nH]cc(F)c(=O)[nH]1 + CN(C)c1ccc(Nc2c3ccc(NC(=O)CCN4CCCC4)cc3nc3cc(NC(=O)CCN4CCCC4)ccc23)cc1

< 5.00
< 5.00

The origin of these recorded values is PubChem BioAssay AID2060510.
